Hello, the source for this data is patent US11564969B2, in case you need it.

Target: GnRHR (Homo sapiens, UniProt P30968)
Sequence (P30968 whole entry): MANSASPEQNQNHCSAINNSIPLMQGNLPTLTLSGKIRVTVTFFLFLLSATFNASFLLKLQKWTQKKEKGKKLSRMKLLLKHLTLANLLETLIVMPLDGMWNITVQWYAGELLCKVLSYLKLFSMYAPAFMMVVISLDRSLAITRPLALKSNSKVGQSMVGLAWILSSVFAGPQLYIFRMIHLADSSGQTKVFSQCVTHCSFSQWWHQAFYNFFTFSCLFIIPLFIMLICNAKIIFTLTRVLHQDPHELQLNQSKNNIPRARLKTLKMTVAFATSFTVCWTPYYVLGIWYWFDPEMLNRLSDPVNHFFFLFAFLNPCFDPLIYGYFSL
Measurement conditions: 1000.0
Square brackets hold non-standard residues; d marks the D form. Peptide text beside a SMILES is read from it. dHis(τ-Bn) = N[C@H](Cc1cn(Cc2ccccc2)cn1)C(=O)O; pGlu = O=C1CC[C@@H](C(=O)O)N1
Measured quantity: GNRHR Stimulation at 1 μM (percentage)
One number for each entry, in percentage.

Examples with their reported GNRHR Stimulation at 1 μM follow.
{"Compound": "CC(C)C[C@H](NC(=O)[C@@H](Cc1c[nH]c2ccccc12)NC(=O)[C@H](Cc1c[nH]cn1)NC(=O)[C@H](CO)NC(=O)[C@H](Cc1c[nH]c2ccccc12)NC(=O)[C@H](Cc1c[nH]cn1)NC(=O)[C@@H]1CCC(=O)N1)C(=O)N[C@@H](CCCNC(=N)N)C(=O)N1CCC[C@H]1C(=O)NCC(N)=O [Compound 68] ([pGlu]HWSH[dW]LRPG-NH2)", "Target": "GnRHR (Homo sapiens, UniProt P30968)", "Unit spec": "percentage", "GNRHR Stimulation at 1 μM": 86}
{"Compound": "CCNC(=O)[C@@H]1CCCN1C(=O)[C@H](Cc1ccc(O)cc1)NC(=O)[C@H](Cc1c[nH]c2ccccc12)NC(=O)[C@@H](CC(C)C)NC(=O)[C@H](Cc1c[nH]cn1)NC(=O)[C@H](CO)NC(=O)[C@H](Cc1c[nH]c2ccccc12)NC(=O)[C@H](Cc1c[nH]cn1)NC(=O)[C@@H]1CCC(=O)N1 [Compound 50] ([pGlu]HWSH[dL]WYP-NHEt)", "Target": "GnRHR (Homo sapiens, UniProt P30968)", "Unit spec": "percentage", "GNRHR Stimulation at 1 μM": 105}
{"Compound": "CCNC(=O)[C@@H]1CCCN1C(=O)[C@H](CCCNC(=N)N)NC(=O)[C@H](Cc1c[nH]c2ccccc12)NC(=O)[C@@H](CC(C)C)NC(=O)[C@H](Cc1c[nH]cn1)NC(=O)[C@H](CO)NC(=O)[C@H](Cc1c[nH]c2ccccc12)NC(=O)[C@H](Cc1c[nH]cn1)NC(=O)[C@@H]1CCC(=O)N1 [Compound 47] ([pGlu]HWSH[dL]WRP-NHEt)", "Target": "GnRHR (Homo sapiens, UniProt P30968)", "Unit spec": "percentage", "GNRHR Stimulation at 1 μM": 119}

// next item, GNRHR Stimulation at 1 μM requested
Challenge: Determine from records and report GNRHR Stimulation at 1 μM for CCNC(=O)[C@@H]1CCCN1C(=O)[C@H](Cc1ccc(O)cc1)NC(=O)[C@H](Cc1c[nH]c2ccccc12)NC(=O)[C@@H](Cc1cn(Cc2ccccc2)cn1)NC(=O)[C@H](Cc1ccc(O)cc1)NC(=O)[C@H](CO)NC(=O)[C@H](Cc1c[nH]c2ccccc12)NC(=O)[C@H](Cc1c[nH]cn1)NC(=O)[C@@H]1CCC(=O)N1 [Compound 62] ([pGlu]HWSY[dHis(τ-Bn)]WYP-NHEt)
Response given: 77

---

Target: GnRHR (Homo sapiens, UniProt P30968)
Measurement conditions: 1000.0
Square brackets hold non-standard residues; d marks the D form. Peptide text beside a SMILES is read from it. * marks the point of attachment. d2Nal = N[C@H](Cc1ccc2ccccc2c1)C(=O)O; pGlu = O=C1CC[C@@H](C(=O)O)N1; tBu = CC(C)(C)*
Would you mind telling me the reported GNRHR Stimulation at 1 μM of each entry?
Give bare numbers, in percentage.

Previously resolved entries follow.
{"Compound": "N=C(N)NCCC[C@H](NC(=O)[C@H](Cc1c[nH]c2ccccc12)NC(=O)[C@@H](Cc1ccc2ccccc2c1)NC(=O)[C@H](Cc1ccc(O)cc1)NC(=O)[C@H](CO)NC(=O)[C@H](Cc1c[nH]c2ccccc12)NC(=O)[C@H](Cc1c[nH]cn1)NC(=O)[C@@H]1CCC(=O)N1)C(=O)N1CCC[C@H]1C(=O)NCC(N)=O [Compound 24] ([pGlu]HWSY[d2Nal]WRPG-NH2)", "GNRHR Stimulation at 1 μM, percentage": 87}
{"Compound": "CCNC(=O)[C@@H]1CCCN1C(=O)[C@H](Cc1ccc(O)cc1)NC(=O)[C@H](Cc1c[nH]c2ccccc12)NC(=O)[C@@H](CC(C)C)NC(=O)[C@H](Cc1ccc(O)cc1)NC(=O)[C@H](CO)NC(=O)[C@H](Cc1c[nH]c2ccccc12)NC(=O)[C@H](Cc1c[nH]cn1)NC(=O)[C@@H]1CCC(=O)N1 [Compound 49] ([pGlu]HWSY[dL]WYP-NHEt)", "GNRHR Stimulation at 1 μM, percentage": 77}
{"Compound": "CCNC(=O)[C@@H]1CCCN1C(=O)[C@H](Cc1ccc(O)cc1)NC(=O)[C@H](CC(C)C)NC(=O)[C@@H](COC(C)(C)C)NC(=O)[C@H](Cc1c[nH]cn1)NC(=O)[C@H](CO)NC(=O)[C@H](Cc1c[nH]c2ccccc12)NC(=O)[C@H](Cc1c[nH]cn1)NC(=O)[C@@H]1CCC(=O)N1 [Compound 11] ([pGlu]HWSH[dS](tBu)LYP-NHEt)", "GNRHR Stimulation at 1 μM, percentage": 76}
{"Compound": "CCNC(=O)[C@@H]1CCCN1C(=O)[C@H](Cc1ccc(O)cc1)NC(=O)[C@H](CC(C)C)NC(=O)[C@@H](CC(C)C)NC(=O)[C@H](Cc1c[nH]cn1)NC(=O)[C@H](CO)NC(=O)[C@H](Cc1c[nH]c2ccccc12)NC(=O)[C@H](Cc1c[nH]cn1)NC(=O)[C@@H]1CCC(=O)N1 [Compound 48] ([pGlu]HWSH[dL]LYP-NHEt)", "GNRHR Stimulation at 1 μM, percentage": 118}
{"Compound": "NC(=O)CNC(=O)[C@@H]1CCCN1C(=O)[C@H](Cc1ccc(O)cc1)NC(=O)[C@H](Cc1c[nH]c2ccccc12)NC(=O)[C@@H](Cc1ccc2ccccc2c1)NC(=O)[C@H](Cc1c[nH]cn1)NC(=O)[C@H](CO)NC(=O)[C@H](Cc1c[nH]c2ccccc12)NC(=O)[C@H](Cc1c[nH]cn1)NC(=O)[C@@H]1CCC(=O)N1 [Compound 33] ([pGlu]HWSH[d2Nal]WYPG-NH2)", "GNRHR Stimulation at 1 μM, percentage": 67}

Challenge: For the compound CC(C)C[C@H](NC(=O)[C@@H](Cc1ccc2ccccc2c1)NC(=O)[C@H](Cc1ccc(O)cc1)NC(=O)[C@H](CO)NC(=O)[C@H](Cc1c[nH]c2ccccc12)NC(=O)[C@H](Cc1c[nH]cn1)NC(=O)[C@@H]1CCC(=O)N1)C(=O)N[C@@H](Cc1ccc(O)cc1)C(=O)N1CCC[C@H]1C(=O)NCC(N)=O [Compound 25] ([pGlu]HWSY[d2Nal]LYPG-NH2) , report GNRHR Stimulation at 1 μM.
Response given: 82

---

Experimental protocol: Solubility analysis in PBS (Analysis Method B)
Format: physicochemical
Measurement conditions: pH 7.4
Structures can show the parent of a compound that is named as a salt. Square brackets hold non-standard residues; d marks the D form. Peptide text beside a SMILES is read from it. pGlu = O=C1CC[C@@H](C(=O)O)N1
Measured quantity: Solubility grading
One number for each entry.

In the examples that follow, each entry is paired with its recorded Solubility grading.
{"Compound": "CCNC(=O)[C@@H]1CCCN1C(=O)[C@H](CCCNC(=N)N)NC(=O)[C@H](Cc1c[nH]c2ccccc12)NC(=O)[C@@H](CC(C)C)NC(=O)[C@H](Cc1c[nH]cn1)NC(=O)[C@H](CO)NC(=O)[C@H](Cc1c[nH]c2ccccc12)NC(=O)[C@H](Cc1c[nH]cn1)NC(=O)[C@@H]1CCC(=O)N1 [Compound 47] ([pGlu]HWSH[dL]WRP-NHEt)", "Solubility grading": 1}
{"Compound": "N=C(N)NCCC[C@H](NC(=O)[C@H](Cc1c[nH]c2ccccc12)NC(=O)[C@@H](Cc1c[nH]c2ccccc12)NC(=O)[C@H](Cc1ccc(O)cc1)NC(=O)[C@H](CO)NC(=O)[C@H](Cc1c[nH]c2ccccc12)NC(=O)[C@H](Cc1c[nH]cn1)NC(=O)[C@@H]1CCC(=O)N1)C(=O)N1CCC[C@H]1C(=O)NCC(N)=O [Compound 66] ([pGlu]HWSY[dW]WRPG-NH2)", "Solubility grading": 5}

Please look at the following compound next.
Challenge: Recall and state the measured Solubility grading for CCNC(=O)[C@@H]1CCCN1C(=O)[C@H](CCCNC(=N)N)NC(=O)[C@H](CC(C)C)NC(=O)[C@@H](Cc1cn(Cc2ccccc2)cn1)NC(=O)[C@H](Cc1ccc(O)cc1)NC(=O)[C@H](CO)NC(=O)[C@H](Cc1c[nH]c2ccccc12)NC(=O)[C@H](Cc1cnc[nH]1)NC(=O)[C@@H]1CCC(=O)N1 [Histrelin TFA, histrelin, reference compound] .
Response given: 2
